Molecular target: ROCK1 (Homo sapiens (Human), UniProt Q13464)
Sequence (Q13464 whole entry): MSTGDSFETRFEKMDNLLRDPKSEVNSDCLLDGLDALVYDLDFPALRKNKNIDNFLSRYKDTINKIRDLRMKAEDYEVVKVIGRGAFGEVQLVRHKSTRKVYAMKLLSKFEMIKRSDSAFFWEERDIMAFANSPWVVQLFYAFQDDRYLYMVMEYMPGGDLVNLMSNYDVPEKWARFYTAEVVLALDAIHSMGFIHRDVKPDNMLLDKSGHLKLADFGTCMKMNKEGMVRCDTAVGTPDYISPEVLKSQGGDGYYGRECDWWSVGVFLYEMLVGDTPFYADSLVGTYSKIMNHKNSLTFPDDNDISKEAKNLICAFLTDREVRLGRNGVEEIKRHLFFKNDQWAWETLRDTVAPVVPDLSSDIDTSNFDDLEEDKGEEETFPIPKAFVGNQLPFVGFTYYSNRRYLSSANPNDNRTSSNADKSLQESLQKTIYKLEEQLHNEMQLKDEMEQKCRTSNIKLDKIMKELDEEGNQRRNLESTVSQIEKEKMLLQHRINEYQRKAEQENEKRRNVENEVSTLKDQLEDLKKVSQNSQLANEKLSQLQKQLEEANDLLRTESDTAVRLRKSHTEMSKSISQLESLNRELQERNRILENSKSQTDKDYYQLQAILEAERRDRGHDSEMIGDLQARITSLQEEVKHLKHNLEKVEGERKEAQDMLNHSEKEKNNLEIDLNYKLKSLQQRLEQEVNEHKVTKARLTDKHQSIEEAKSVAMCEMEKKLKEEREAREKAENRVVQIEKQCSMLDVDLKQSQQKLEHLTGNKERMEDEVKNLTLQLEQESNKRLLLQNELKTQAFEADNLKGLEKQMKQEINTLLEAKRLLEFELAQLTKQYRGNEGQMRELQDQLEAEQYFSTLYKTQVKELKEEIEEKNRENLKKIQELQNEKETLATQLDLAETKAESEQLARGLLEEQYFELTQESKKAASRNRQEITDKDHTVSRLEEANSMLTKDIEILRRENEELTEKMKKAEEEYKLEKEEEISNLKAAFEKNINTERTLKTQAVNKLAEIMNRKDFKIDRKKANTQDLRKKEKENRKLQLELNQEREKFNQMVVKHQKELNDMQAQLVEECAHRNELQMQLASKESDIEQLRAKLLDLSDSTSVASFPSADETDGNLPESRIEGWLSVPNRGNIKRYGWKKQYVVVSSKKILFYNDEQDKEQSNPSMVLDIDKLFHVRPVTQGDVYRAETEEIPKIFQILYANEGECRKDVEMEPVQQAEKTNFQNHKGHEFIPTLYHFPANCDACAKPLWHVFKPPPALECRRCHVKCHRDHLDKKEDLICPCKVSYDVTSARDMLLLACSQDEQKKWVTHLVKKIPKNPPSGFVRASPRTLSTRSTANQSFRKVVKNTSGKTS
Assay: Z-lyte FRET assay to measure kinase inhibition, ROCK1
Type: biochemical
Conditions: read-out: ROCK1 % inhibition @ 50 μM, 50 μM compound
Quick reference: inhibition at 50 µM of the listed items.
readout kind: inhibition at 50 µM (%)

> print(dat)
                                    molecule  observed
 1  Nc1nccc(N2c3ccccc3CC2C(=O)O)n1 (stereo not shown)         6
 2  Nc1nc(Nc2ccc(S(N)(=O)=O)cc2)c2[nH]cnc2n1         9
 3  CC1Cc2cc(F)ccc2N1c1ccnc(N)n1 (stereo not shown)        97
 4  COc1ccc2c(c1)c(CCNC(C)=O)cn2-c1ccnc(N)n1        89
 5                  COc1cccc(Nc2ccnc(N)n2)c1        63
 6            Nc1nccc(Nc2ccccc2OCc2ccccc2)n1        22
 7       Cc1cc(Nc2cccc(S(N)(=O)=O)c2)nc(N)n1       0.8
 8    CC(=O)NS(=O)(=O)c1ccc(Nc2ccnc(N)n2)cc1         9
 9          CS(=O)(=O)c1cccc(Nc2ccnc(N)n2)c1        90
10  Nc1nccc(-n2ccc3cc(NC(=O)CCc4ccccc4)ccc32)n1        60
11  Nc1nccc(-n2ccc3c(C(=O)NCCc4ccccc4)cccc32)n1        91
12  Nc1nccc(-n2ccc3c(C(=O)NCc4ccc(Cl)cc4)cccc32)n1        31
13   Nc1nccc(-n2ccc3c(OCc4ccccc4Cl)cccc32)n1        62
14  Nc1nccc(Nc2ccc(S(N)(=O)=O)cc2)n1 [drawing 83]        60
15              NC(=O)c1ccc(Oc2ccnc(N)n2)cc1         2
16             COC(=O)c1cccc(Nc2ccnc(N)n2)c1        63
17             COc1ccc2ccn(-c3ccnc(N)n3)c2c1        88
18     Nc1nccc(-n2ccc3cccc(OCc4ccccc4)c32)n1        -5
19    Nc1nccc(-n2ccc3cc(OCCc4ccccc4)ccc32)n1        21
20  Nc1nccc(-n2ccc3c(C(=O)NCc4cccc(F)c4)cccc32)n1        72
21  CC1Cc2ccccc2N1c1ccnc(N)n1 (stereo not shown)        97
22  Nc1nccc(-n2ccc3c(OCc4cccc(Cl)c4)cccc32)n1        44
23                  CCc1ccc(Nc2ccnc(N)n2)cc1        36
24        c1ccc(Nc2nccc(N3CCc4ccccc43)n2)cc1        -1
25  CC1Cc2cc([N+](=O)[O-])ccc2N1c1ccnc(N)n1 (stereo not shown)        98
26  Nc1nccc(-n2ccc3cc(NC(=O)c4ccccc4)ccc32)n1         8
27  Nc1nccc(-n2ccc3cc(C(=O)Nc4ccccc4)ccc32)n1        17
28                 Nc1nccc(N2CCCc3ccccc32)n1        69
29          Nc1nccc(Nc2cccc(S(N)(=O)=O)c2)n1        90
30  Nc1nccc(-n2ccc3cc(C(=O)NCCc4ccccc4)ccc32)n1        96
31                 CCOc1ccc(Nc2ccnc(N)n2)cc1        31
32  COc1cccc(CNC(=O)c2cccc3c2ccn3-c2cc(N)nc(N)n2)c1      1.26
33             Nc1nccc(-n2ccc3cc(Br)ccc32)n1        89
34  Nc1nccc(Nc2ccc(S(=O)(=O)Nc3ccnn3-c3ccccc3)cc2)n1       1.8
